The reported numbers originate from patent US20240398784A1.

- Tested system: LRRK2 G2019S (Homo sapiens, UniProt Q5S007, G2019S)
- Sequence (Q5S007 whole entry G2019S): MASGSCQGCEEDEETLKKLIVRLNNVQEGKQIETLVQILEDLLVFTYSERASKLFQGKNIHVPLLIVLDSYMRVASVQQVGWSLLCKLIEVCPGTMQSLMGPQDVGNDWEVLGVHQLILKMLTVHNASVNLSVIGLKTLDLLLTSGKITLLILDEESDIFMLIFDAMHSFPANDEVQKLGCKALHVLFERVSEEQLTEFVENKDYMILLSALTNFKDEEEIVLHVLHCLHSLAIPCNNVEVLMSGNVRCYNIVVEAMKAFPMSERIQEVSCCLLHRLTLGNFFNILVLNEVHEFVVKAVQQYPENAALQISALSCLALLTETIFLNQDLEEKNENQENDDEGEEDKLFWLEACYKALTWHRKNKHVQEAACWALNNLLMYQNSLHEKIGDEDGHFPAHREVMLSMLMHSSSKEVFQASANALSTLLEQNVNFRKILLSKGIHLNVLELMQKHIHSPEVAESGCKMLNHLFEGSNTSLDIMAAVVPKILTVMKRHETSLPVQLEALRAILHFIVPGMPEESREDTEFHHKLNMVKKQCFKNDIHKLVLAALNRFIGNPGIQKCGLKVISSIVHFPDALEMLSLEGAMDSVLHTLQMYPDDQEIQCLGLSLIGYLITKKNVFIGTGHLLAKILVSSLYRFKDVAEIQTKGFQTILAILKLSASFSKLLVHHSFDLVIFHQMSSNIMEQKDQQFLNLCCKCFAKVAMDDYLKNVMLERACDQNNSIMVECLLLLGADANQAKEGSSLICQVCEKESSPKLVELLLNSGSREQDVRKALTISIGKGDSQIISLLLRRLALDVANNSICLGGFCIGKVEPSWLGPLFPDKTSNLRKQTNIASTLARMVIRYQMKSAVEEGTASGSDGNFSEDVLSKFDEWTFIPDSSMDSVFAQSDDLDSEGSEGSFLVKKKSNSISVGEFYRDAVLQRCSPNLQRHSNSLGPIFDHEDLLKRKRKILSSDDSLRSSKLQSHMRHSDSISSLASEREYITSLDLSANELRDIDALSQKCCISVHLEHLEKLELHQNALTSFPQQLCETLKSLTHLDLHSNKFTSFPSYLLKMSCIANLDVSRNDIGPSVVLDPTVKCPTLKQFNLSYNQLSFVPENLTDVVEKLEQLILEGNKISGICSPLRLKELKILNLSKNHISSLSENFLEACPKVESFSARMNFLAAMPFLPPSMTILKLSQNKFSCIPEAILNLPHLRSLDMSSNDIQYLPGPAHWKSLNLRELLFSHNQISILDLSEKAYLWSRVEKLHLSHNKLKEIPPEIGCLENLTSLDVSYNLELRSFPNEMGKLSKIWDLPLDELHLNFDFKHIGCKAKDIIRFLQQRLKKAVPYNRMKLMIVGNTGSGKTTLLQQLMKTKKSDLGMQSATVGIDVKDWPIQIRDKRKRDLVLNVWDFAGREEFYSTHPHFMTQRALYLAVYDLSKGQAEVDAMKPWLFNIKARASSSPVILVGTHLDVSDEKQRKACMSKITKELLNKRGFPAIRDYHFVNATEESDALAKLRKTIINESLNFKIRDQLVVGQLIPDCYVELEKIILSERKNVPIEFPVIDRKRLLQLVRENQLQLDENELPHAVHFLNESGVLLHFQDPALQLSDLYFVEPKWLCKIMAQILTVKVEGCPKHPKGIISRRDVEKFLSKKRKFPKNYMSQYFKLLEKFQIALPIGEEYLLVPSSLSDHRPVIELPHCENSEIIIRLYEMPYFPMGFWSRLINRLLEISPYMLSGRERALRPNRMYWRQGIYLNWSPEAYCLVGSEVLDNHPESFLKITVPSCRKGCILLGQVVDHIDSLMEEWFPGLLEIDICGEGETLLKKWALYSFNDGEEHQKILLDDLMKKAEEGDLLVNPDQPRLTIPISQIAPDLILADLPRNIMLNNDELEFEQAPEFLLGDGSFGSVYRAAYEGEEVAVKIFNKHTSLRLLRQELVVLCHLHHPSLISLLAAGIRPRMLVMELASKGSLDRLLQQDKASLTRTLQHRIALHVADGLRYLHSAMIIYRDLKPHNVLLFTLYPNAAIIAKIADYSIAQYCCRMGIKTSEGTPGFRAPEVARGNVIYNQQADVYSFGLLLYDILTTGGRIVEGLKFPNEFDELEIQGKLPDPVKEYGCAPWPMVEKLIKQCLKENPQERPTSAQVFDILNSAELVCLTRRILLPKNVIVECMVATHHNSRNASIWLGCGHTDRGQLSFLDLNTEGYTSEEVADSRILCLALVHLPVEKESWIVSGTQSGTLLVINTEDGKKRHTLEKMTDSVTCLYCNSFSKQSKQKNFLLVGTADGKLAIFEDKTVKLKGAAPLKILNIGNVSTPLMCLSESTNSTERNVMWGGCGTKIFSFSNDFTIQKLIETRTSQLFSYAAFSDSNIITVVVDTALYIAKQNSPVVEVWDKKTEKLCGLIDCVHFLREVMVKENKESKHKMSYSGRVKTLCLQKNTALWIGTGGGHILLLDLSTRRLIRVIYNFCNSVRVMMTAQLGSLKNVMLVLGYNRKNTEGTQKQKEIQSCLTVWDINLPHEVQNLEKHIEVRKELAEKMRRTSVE
- Protocol notes: LRRK2 G2019S Km ATP LanthaScreen assay
- Assay type: biochemical
- Recorded conditions: read-out: LRRK2 pIC50 (converted)
- Excerpt: Unless otherwise noted, all reactions are magnetically stirred. Unless otherwise noted, when diethyl ether is used in the experiments described below, it is Fisher ACS certified material and is stabilized with BHT. Unless otherwise noted, “concentrated” and/or “solvent removed under reduced pressure” means evaporating the solvent from a solution or mixture using a rotary evaporator or vacuum pump. […]
Assay metric: IC50 (nM)
API: value field is a number in nM; no unit string.

As a guide, the following entries are already answered.
1. CC1(C)CCC(C(=O)Nc2cc3cc(C4CCC(N5CCC(F)C5)CC4)c(Cl)cc3cn2)CO1 (single isomer, unassigned) [Ex-5.20]; 10.5
2. CC1(N2CCC(c3cc4cc(NC(=O)C5CC56CCOCC6)ncc4cc3Cl)C(F)C2)COCC1O (single isomer, unassigned) [Ex-14.5]; 1.58
3. CC1(N2CCC(c3cc4cc(NC(=O)C5CCC5C#N)ncc4cc3Cl)CC2)COCC1F (centres unmarked); 0.0813
4. CC1OCCC1N1CCC(c2cc3cc(NC(=O)C4CC4)ncc3cc2Cl)CC1 (single isomer, unassigned) [Ex-9.9]; 5.62
5. CC1COCC1(C)N1CCC(c2cc3cc(NC(=O)C4CC45CCOCC5)ncc3cc2Cl)CC1 (single isomer, unassigned) [Ex-6.9]; 0.813

Exercise: What IC50 value was documented for this compound, Cc1cc2cnc(NC(=O)C3CC3c3ccccn3)cc2cc1C1CCN(C2(C)COCC2O)CC1 (single isomer, unassigned) [Ex-4.78] ?
Solution: 0.0813

###

Parameter: IC50. Scope: all listed entries.
- Tested system: LRRK2 G2019S (Homo sapiens, UniProt Q5S007, G2019S)
- Protocol notes: LRRK2 G2019S Km ATP LanthaScreen assay
- Format: biochemical
- Recorded conditions: read-out: LRRK2 pIC50 (converted)
API: value field is a number in nM; no unit string.

As a guide, the following entries are already answered.
1) N#CC1(c2ccc3cnc(NC(=O)C4CC4c4cccnc4)cc3c2)CC12CC2 (stereo not shown) [Ex-2.46]; 0.851
2) CC(C)(O)c1cccc(CC(=O)Nc2cc3cc(C4(C#N)CC45CC5)ccc3cn2)c1 (single isomer, unassigned) [Ex-1.45]; 12.9
3) CCC1C(C(=O)Nc2cc3cc(C4CCN(C5(C)COCC5O)CC4)c(Cl)cc3cn2)C1c1ccccn1 (single isomer, unassigned) [Ex-4.56]; 18.2
4) CCC1C(C(=O)Nc2cc3cc(C4CC(C#N)C4)c(Cl)cc3cn2)C1c1cnn(C)c1 (stereo not shown) [Ex-9.18]; 22.4

Exercise: What IC50 value was documented for this molecule, N#CC1(c2ccc3cnc(NC(=O)C4CC4)cc3c2)CCC1 [Ex-17.2] ?
Solution: 14.5

Exercise: Then CC(C)OC1CCC(C(=O)Nc2cc3cc(C4CCN(C5(C)COCC5O)CC4)c(Cl)cc3cn2)CO1 (stereo not shown) [Ex-2.27] ?
Solution: 0.324

Exercise: Then Cc1cc2cnc(NC(=O)C3CC3c3cnn(C)c3)cc2cc1C1CC12CC2 (single isomer, unassigned) [Ex-16.4] ?
Solution: 28.8
